# System tested: AtDHDPS1 (dihydrodipicolinate synthase 1) (Arabidopsis thaliana, UniProt Q9LZX6)
# Construct: recombinant, fusion tag cleaved
# Sequence (Q9LZX6 40-365): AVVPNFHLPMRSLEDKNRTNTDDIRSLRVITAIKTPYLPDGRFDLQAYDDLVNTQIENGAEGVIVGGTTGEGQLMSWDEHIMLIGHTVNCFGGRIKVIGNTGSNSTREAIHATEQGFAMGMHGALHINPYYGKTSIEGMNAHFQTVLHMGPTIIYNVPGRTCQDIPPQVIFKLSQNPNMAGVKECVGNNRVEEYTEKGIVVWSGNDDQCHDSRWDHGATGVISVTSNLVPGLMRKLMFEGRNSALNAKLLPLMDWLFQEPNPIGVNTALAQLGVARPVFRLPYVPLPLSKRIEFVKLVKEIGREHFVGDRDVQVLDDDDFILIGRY
# Assay text: DHDPS–DHDPR coupled enzyme assay (NADPH oxidation)
Assay metric: IC50 (µM)

COc1ccccc1/C=C1\SC(=O)N(CC(=O)O)C1=O
126
